Assay: Acute toxicity in mice
Conditions: mouse, in vivo; male mice, oral; read-out: Acute oral median lethal dose
ASSAY_READOUT: LD50 (mg/kg)
Supply the numeric figure in mg/kg, leaving out any unit text.

What measured LD50 goes with CON=C(C#N)c1cnccn1 [Compound 5, α-Methoxyiminopyrazineacetonitrile] ?
1270
